These entries and their values trace back to patent US11560400B2.

We begin with a simple list: items and their reported EC50.
system: RL; assay: CellTiterGlo cell viability assay, RL; assay type: cell-based; conditions: Homo sapiens, 72 h, Table 4 classes, read-out: Ab EC50

Solved cases (4 shown):
CCOP(=O)(N[C@@H](C)C(=O)OCc1ccccc1)OP(=O)(O)OC[C@H]1O[C@@H](n2cnc3c(N)nc(Cl)nc32)[C@H](F)C1O (some centres unmarked) [Example 20]    200 to 1000 nM
C[C@H](NP(=O)(Oc1cccc2c1CCCC2)OP(=O)(O)OC[C@H]1O[C@@H](n2cnc3c(N)nc(Cl)nc32)[C@H](F)C1O)C(=O)OCc1ccccc1 (some centres unmarked) [Example 19]    200 to 1000 nM
Nc1nc(Cl)nc2c1ncn2[C@@H]1O[C@H](CO)[C@@H](O)[C@@H]1F [Clofarabine, reference compound]    200 to 1000 nM
C[C@H](NP(=O)(Oc1ccccc1)OP(=O)(O)OC[C@H]1O[C@@H](n2cnc3c(N)nc(Cl)nc32)[C@H](F)C1O)C(=O)OCC(C)(C)C (some centres unmarked) [Example 9]    200 to 1000 nM

Next up:
Can you share its EC50? I mean this molecule: CC(C)C[C@H](NP(=O)(Oc1ccccc1)OP(=O)(O)OC[C@H]1O[C@@H](n2cnc3c(N)nc(Cl)nc32)[C@H](F)C1O)C(=O)OCc1ccccc1 (some centres unmarked) [Example 21]
1000 to 5000 nM

----------
system: KG-1; test: CellTiterGlo cell viability assay, KG-1; assay type: cell-based; details: KG-1, 72 h, absolute EC50, numeric values; read-out: Ab EC50
readout: pEC50
# pEC50 = -log10(concentration in molar units)

What does the data say about its pEC50? Entry: CC(C)[C@H](NP(=O)(Oc1ccccc1)OP(=O)(O)OC[C@H]1O[C@@H](n2cnc3c(N)nc(Cl)nc32)[C@@H](F)[C@@H]1O)C(=O)OC1CCCCC1.CCN(CC)CC (stereo partly shown) [Example 12]
6.85

----------
system: CCRF-CEM; assay: CellTiterGlo cell viability assay, CCRF-CEM; assay type: cell-based; details: 72 h, absolute EC50, numeric values, read-out: Ab EC50
readout: EC50

// EC50 lookup, key: CC(C)[C@H](NP(=O)(Oc1ccccc1)OP(=O)(O)OC[C@H]1O[C@@H](n2cnc3c(N)nc(Cl)nc32)[C@@H](F)[C@@H]1O)C(=O)OC1CCCCC1.CCN(CC)CC (stereo partly shown)
< 20 nM

----------
tested on: KG-1; assay: CellTiterGlo cell viability assay, KG-1; type: cell-based; details: Homo sapiens; KG-1, 72 h, percentage inhibition at the highest concentration tested; read-out: Top Inhibit
readout: inhibition at 198 µM (%)
// note: answer is a bare numeric in %

Look at this compound and give its reported inhibition at 198 µM. CCCCCCOC(=O)[C@H](C)NP(=O)(Oc1ccccc1)OP(=O)(O)OC[C@H]1O[C@@H](n2cnc3c(N)nc(Cl)nc32)[C@H](F)C1O (stereo partly drawn)
91

Also check C[C@H](NP(=O)(Oc1cccc2ccccc12)OP(=O)(O)OC[C@H]1O[C@@H](n2cnc3c(N)nc(Cl)nc32)[C@H](F)C1O)C(=O)OCc1ccccc1 (stereo partly drawn)
92

Next up: CC(C)C[C@H](NP(=O)(Oc1ccccc1)OP(=O)(O)OC[C@H]1O[C@@H](n2cnc3c(N)nc(Cl)nc32)[C@H](F)C1O)C(=O)OCc1ccccc1 (stereo partly drawn)
92

And C[C@H](NP(=O)(Oc1cccc2c1CCCC2)OP(=O)(O)OC[C@H]1O[C@@H](n2cnc3c(N)nc(Cl)nc32)[C@H](F)C1O)C(=O)OCc1ccccc1 (stereo partly drawn) ?
92

Moving on to C[C@H](NP(=O)(Oc1cccc2ccccc12)OP(=O)(O)OC[C@H]1O[C@@H](n2cnc3c(N)nc(Cl)nc32)[C@H](F)C1O)C(=O)OCC(C)(C)C (stereo partly drawn)
93

What do you get for CC(C)(NP(=O)(Oc1ccccc1)OP(=O)(O)OC[C@H]1O[C@@H](n2cnc3c(N)nc(Cl)nc32)[C@H](F)C1O)C(=O)OCc1ccccc1 (stereo partly drawn) ?
92

----------
tested on: RPMI-8226; test: CellTiterGlo cell viability assay, RPMI-8226; assay type: cell-based, Human; conditions: Homo sapiens, RPMI-8226, 72 h, read-out: Ab EC50, RPMI-8226, 72 h, absolute EC50, numeric values
readout: EC50
Field: value (include unit after the number)

I am curious: what EC50 value has been reported for C[C@H](NP(=O)(OC[C@@H]1C[C@H](O)[C@H](n2cnc3c(N)ncnc32)O1)Oc1ccccc1)C(=O)OCc1ccccc1 (stereo partly shown) [E, reference compound] ?
19.8 µM

----------
test system: HL-60; test: CellTiterGlo cell viability assay, HL-60; format: cell-based; conditions: HL-60, 72 h, Table 4 classes; read-out: Ab EC50
readout: EC50

CCN(CC)CC.C[C@H](NP(=O)(Oc1cccc2ccccc12)OP(O)(=S)OC[C@H]1O[C@@H](n2cnc3c(N)nc(Cl)nc32)[C@@H](F)[C@@H]1O)C(=O)OCc1ccccc1 (some centres unmarked) [Example 26]    < 200 nM

Okay, next one:
// lookup EC50 for Nc1nc(Cl)nc2c1ncn2[C@@H]1O[C@H](CO)[C@@H](O)[C@@H]1F [Clofarabine, reference compound]
< 200 nM

----------
system: KG-1; experiment: CellTiterGlo cell viability assay, KG-1; format: cell-based; settings: Homo sapiens; KG-1, 72 h, percentage inhibition at the highest concentration tested; read-out: Top Inhibit
readout: inhibition at 198 µM

Given the compound Nc1nc(Cl)nc2c1ncn2[C@@H]1O[C@H](COP(=O)(O)OP(=O)(Oc2ccccc2)N2CCCC2C(=O)OCc2ccccc2)[C@H](O)C1F (some centres unmarked) [Example 23] , what is its reported inhibition at 198 µM?
93%

Also COC(=O)[C@H](CCSC)NP(=O)(Oc1ccccc1)OP(=O)(O)OC[C@H]1O[C@@H](n2cnc3c(N)nc(Cl)nc32)C(F)[C@H]1O (some centres unmarked) [Example 24] ?
91%

----------
test system: KG-1; assay: CellTiterGlo cell viability assay, KG-1; assay type: cell-based; settings: KG-1, 72 h, Table 4 classes; read-out: Ab EC50
readout: EC50

Lab note: need EC50 for CCN(CC)CC.C[C@H](NP(=O)(Oc1cccc2ccccc12)OP(O)(=S)OC[C@H]1O[C@@H](n2cnc3c(N)nc(Cl)nc32)[C@@H](F)[C@@H]1O)C(=O)OCc1ccccc1 (stereo partly shown) [Example 26] on KG-1, anyone have it?
< 200 nM

----------
Test system: KG-1
Experiment: CellTiterGlo cell viability assay, KG-1
Type: cell-based
Details: Homo sapiens, KG-1, 72 h, read-out: Ab EC50
Protocol: A subset of compounds of the invention were assayed for their cytotoxic activity in an array of different solid tumours and haematological malignancies using the following assay. In vitro viability assay were performed to assess the effects of compounds on cell viability in selected cell lines over 72 h using the CellTiterGlo (CTG, Promega-G7573) assay. The tests were performed in duplicates with treatment of compounds at 9 points, 3.16 folds titration in 96 well plates over ˜72 h. […]
readout: EC50

Can you look up EC50 on KG-1 for C[C@H](NP(=O)(OC[C@H]1O[C@@H](n2cnc3c(N)nc(Cl)nc32)[C@H](F)C1O)Oc1ccccc1)C(=O)OCc1ccccc1 (stereo partly shown) [A, reference compound] ?
0.2 to 1 µM

----------
system: HL-60; assay: CellTiterGlo cell viability assay, HL-60; type: cell-based; conditions: HL-60, 72 h, absolute EC50, numeric values; read-out: Ab EC50
readout: EC50

Reported EC50, molecule CC(C)[C@H](NP(=O)(Oc1ccccc1)OP(=O)(O)OC[C@H]1O[C@@H](n2cnc3c(N)nc(Cl)nc32)[C@@H](F)[C@@H]1O)C(=O)OC1CCCCC1.CCN(CC)CC (stereo partly shown) : ____
70 nM

----------
system: Mia-Pa-Ca-2; test: CellTiterGlo cell viability assay, Mia-Pa-Ca-2; format: cell-based; conditions: Homo sapiens, MIA PaCa-2; Mia-Pa-Ca-2, 72 h, percentage inhibition at the highest concentration tested; read-out: Top Inhibit
readout: inhibition at 198 µM (%)
Just the number please, in %, no unit attached.

Nc1ccn([C@@H]2O[C@H](CO)[C@@H](O)C2(F)F)c(=O)n1 [Gemcitabine, reference compound]    79
O=c1[nH]c(=O)n([C@H]2C[C@H](O)[C@@H](CO)O2)cc1F [FUDR, 5-fluoro-2′-deoxyuridine, reference compound]    90
C[C@H](NP(=O)(Oc1ccccc1)OP(=O)(O)OC[C@@H]1C[C@H](O)[C@H](n2cnc3c(N)ncnc32)O1)C(=O)OCc1ccccc1 (stereo partly drawn) [Example 6]    95.7
C[C@H](NP(=O)(OC[C@@H]1C[C@H](O)[C@H](n2cnc3c(N)ncnc32)O1)Oc1ccccc1)C(=O)OCc1ccccc1 (stereo partly drawn) [E, reference compound]    98
C[C@H](NP(=O)(Oc1ccccc1)OP(=O)(O)OC[C@@H]1C[C@H](OP(=O)(O)OP(=O)(N[C@@H](C)C(=O)OCc2ccccc2)Oc2ccccc2)[C@H](n2cnc3c(N)ncnc32)O1)C(=O)OCc1ccccc1 (stereo partly drawn) [Example 7]    98.9

Next:
Query (molecule): C[C@H](NP(=O)(Oc1ccccc1)OP(=O)(O)OC[C@H]1O[C@@H](n2ccc(N)nc2=O)C(F)(F)C1O)C(=O)OCc1ccccc1 (stereo partly drawn) [Example 8] ; field requested: inhibition at 198 µM
79
